Below, each entry is listed with its recorded ELISA luminescence signal at 10 nmol/L peptide, relative to SEQ ID NO: 47 (=1).
# testedTarget: T1, Recombinant Human FGFR2 alpha (IIIc) Fc Chimera Protein, CF (R&D systems, 712-FR-050) (human, UniProt P21802 22-377)
# T1 construct: bought; not shown: Fc part of the chimera
# T1 sequence (P21802 22-377, change not shown): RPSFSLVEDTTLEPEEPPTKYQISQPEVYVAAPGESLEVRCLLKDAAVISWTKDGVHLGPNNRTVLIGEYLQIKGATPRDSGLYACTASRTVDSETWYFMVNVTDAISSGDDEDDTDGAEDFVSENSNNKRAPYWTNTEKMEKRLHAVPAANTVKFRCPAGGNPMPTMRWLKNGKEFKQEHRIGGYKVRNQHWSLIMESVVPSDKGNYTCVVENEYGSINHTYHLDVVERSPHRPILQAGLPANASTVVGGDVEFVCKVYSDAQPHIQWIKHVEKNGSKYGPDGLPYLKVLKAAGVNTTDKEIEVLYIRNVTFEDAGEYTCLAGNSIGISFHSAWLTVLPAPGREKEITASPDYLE
# runDescription: ELISA on plate-bound FGFR2-Fc
Bridge positions count the residues as written; N and C are the ends. Ends that are not written are not given here. COCH2 = acetyl group that carries the bridge

These solved cases illustrate the format of a correct answer.
>>> observedvalue("YCEENYLDPIQYQYFIYFK(COCH2)Y (thioether 2-19 (inferred)) [cyclic peptide SEQ ID NO: 239]")
"≥ 0.7 ratio"
>>> observedvalue("YCEENYLDVEQYQYFIYFK(COCH2)Y (thioether 2-19 (inferred)) [cyclic peptide SEQ ID NO: 224]")
"≥ 0.7 ratio"
>>> observedvalue("VCEENYLDPEQYQYFIYFK(COCH2)Y (thioether 2-19) [cyclic peptide SEQ ID NO: 140]")
"≥ 0.7 ratio"
>>> observedvalue("YCEENYLDPRQYQYFIYFK(COCH2)Y (thioether 2-19 (inferred)) [cyclic peptide SEQ ID NO: 249]")
"≥ 0.7 ratio"
>>> observedvalue("YCEENYLEPEQYQYFIYFK(COCH2)Y (thioether 2-19 (inferred)) [cyclic peptide SEQ ID NO: 218]")
"≥ 0.7 ratio"

Please report ELISA luminescence signal at 10 nmol/L peptide, relative to SEQ ID NO: 47 (=1) for the following binder: QCPQNFINPVQWRYFQHSK(COCH2)N (thioether 2-19) [cyclic peptide SEQ ID NO: 94] 0.1 to 0.5 ratio
